Sourced from patent US12187759B2

Biological target: human TLR7 (Homo sapiens, UniProt Q9NYK1)
Construct: host or cells: HEK293
Sequence (Q9NYK1 27-1049): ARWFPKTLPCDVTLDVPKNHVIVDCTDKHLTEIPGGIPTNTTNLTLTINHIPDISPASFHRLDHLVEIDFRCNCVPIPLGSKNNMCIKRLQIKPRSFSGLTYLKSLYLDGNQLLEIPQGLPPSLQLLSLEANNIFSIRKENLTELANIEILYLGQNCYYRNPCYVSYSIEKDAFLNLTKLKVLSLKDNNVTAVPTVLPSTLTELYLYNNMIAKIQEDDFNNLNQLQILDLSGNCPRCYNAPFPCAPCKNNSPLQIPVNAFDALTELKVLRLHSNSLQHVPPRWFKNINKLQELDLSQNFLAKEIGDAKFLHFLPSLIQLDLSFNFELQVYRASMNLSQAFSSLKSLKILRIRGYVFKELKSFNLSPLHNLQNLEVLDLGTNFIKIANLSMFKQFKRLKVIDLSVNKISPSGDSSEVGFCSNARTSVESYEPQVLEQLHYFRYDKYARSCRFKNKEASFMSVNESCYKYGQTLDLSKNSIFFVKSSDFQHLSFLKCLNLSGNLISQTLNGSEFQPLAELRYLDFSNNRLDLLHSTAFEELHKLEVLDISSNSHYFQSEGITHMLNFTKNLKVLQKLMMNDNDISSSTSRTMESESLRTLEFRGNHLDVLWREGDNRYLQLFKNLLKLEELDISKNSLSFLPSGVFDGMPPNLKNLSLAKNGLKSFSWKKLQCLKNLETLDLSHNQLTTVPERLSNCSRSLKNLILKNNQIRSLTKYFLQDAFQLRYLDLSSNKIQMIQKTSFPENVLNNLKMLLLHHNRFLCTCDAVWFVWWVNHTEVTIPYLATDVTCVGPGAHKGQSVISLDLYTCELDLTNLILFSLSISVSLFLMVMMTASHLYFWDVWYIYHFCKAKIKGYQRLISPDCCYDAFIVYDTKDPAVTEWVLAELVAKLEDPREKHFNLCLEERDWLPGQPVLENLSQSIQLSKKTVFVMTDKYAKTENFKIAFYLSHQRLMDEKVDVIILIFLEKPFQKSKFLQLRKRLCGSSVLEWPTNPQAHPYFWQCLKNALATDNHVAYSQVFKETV
Assay: TLR7 reporter cell assay (HEK293 cells stably expressing human TLR7 with NF-κB-driven SEAP reporter)
Type: cell-based
Settings: HEK293, read-out: Response at 500 μM Compound as a Percent of Resiquimod Response

molecule	Emax at 500 µM
C=C=Cn1c(=O)n([C@@H]2O[C@H]([C@H](O)CC)C[C@H]2O)c2nc(N)[nH]c(=O)c21 [Compound 3]	< 5%
C#CCn1c(=O)n([C@@H]2O[C@H]([C@H](O)C(F)(F)F)C[C@H]2O)c2nc(N)[nH]c(=O)c21 [Compound 11]	< 5%
C#CCn1c(=O)n([C@@H]2O[C@H]([C@H](O)CC)C[C@H]2O)c2nc(N)[nH]c(=O)c21 [Compound 2]	< 5%
C#CCn1c(=O)n([C@@H]2O[C@@H](C(=O)CC)C[C@H]2O)c2nc(N)[nH]c(=O)c21 [Compound 38]	< 5%
